# Target entity: Human immunodeficiency virus type 1 protease (Human immunodeficiency virus 1) (UniProt Q72874)
# Protocol summary: Inhibitory activity against HIV-1 protease at 100 uM
Residues, ends and D or L forms follow the SMILES beside them.
Please provide measured inhibition for the entries that follow.
Answers are plain numbers, in %.

Known results for compounds:
Compound	Test result
CC[C@H](C)[C@H](NC(=O)[C@H](CCC(N)=O)NC(=O)[C@@H]1CCCN1C(C)=O)C(=O)N[C@H](C(=O)N[C@@H](CC(C)C)C(=O)O)[C@@H](C)O (Ac-PQITL-OH)	-1.4
CC[C@H](C)[C@H](NC(=O)[C@H](CCC(N)=O)NC(=O)[C@@H]1CCCN1)C(=O)N[C@H](C(=O)N[C@@H](CC(C)C)C(=O)O)[C@@H](C)O (H-PQITL-OH)	5.6

Noted for CC[C@H](C)[C@H](NC(=O)[C@H](CCC(N)=O)NC(C)=O)C(=O)NCC(=O)N[C@@H](CO)C(=O)N[C@H](C(=O)N[C@@H](CC(C)C)C(=O)N[C@@H](CC(N)=O)C(=O)N[C@@H](Cc1ccccc1)C(=O)O)[C@@H](C)O (Ac-QIGSTLNF-OH) : its inhibition reads 34.6
